Recorded pIC50 by entry
test: Antiproliferative activity against human HT1080 cells assessed as cell growth inhibition after 48 hrs by sulforhodamine B assay; format: functional, cell-based; settings: HT-1080, 48 h
pIC50: −log10 of the molar value.
ENDPOINT NAME: pIC50

mol=Cc1cc(C)cc(/C=C/c2ccc(N3CCNC3=O)cc2)c1 endpoint_name=pIC50 relational_operator=< observed_measurement=4.70
mol=COc1cc(/C=C\c2ccc(N3CCNC3=O)cc2)cc(OC)c1OC endpoint_name=pIC50 relational_operator== observed_measurement=8.64
mol=CCNC(=O)Nc1ccc(/C=C\c2cc(C)cc(C)c2)cc1 endpoint_name=pIC50 relational_operator== observed_measurement=4.82
mol=CCNC(=O)Nc1ccc(/C=C\c2cccc(Cl)c2)cc1 endpoint_name=pIC50 relational_operator== observed_measurement=4.51
mol=O=C1NCCN1c1ccc(/C=C\c2cccc(Cl)c2)cc1 endpoint_name=pIC50 relational_operator== observed_measurement=7.46
mol=Cc1cc(C)cc(/C=C\c2ccc(NC(=O)NCCCl)cc2)c1 endpoint_name=pIC50 relational_operator== observed_measurement=6.15
mol=COc1cc(/C=C\c2ccc(NC(=O)NCCCl)cc2)cc(OC)c1OC endpoint_name=pIC50 relational_operator== observed_measurement=5.85
mol=COc1cc(/C=C/c2ccc(N3CCNC3=O)cc2)cc(OC)c1OC endpoint_name=pIC50 relational_operator== observed_measurement=6.40
mol=Cc1cc(C)cc(/C=C/c2ccc(NC(=O)NCCCl)cc2)c1 endpoint_name=pIC50 relational_operator=< observed_measurement=4.70
mol=O=C(NCCCl)Nc1ccc(/C=C\c2cccc(Cl)c2)cc1 endpoint_name=pIC50 relational_operator== observed_measurement=6.77
mol=CCNC(=O)Nc1ccc(/C=C/c2cccc(Cl)c2)cc1 endpoint_name=pIC50 relational_operator=< observed_measurement=4.70
mol=CCNC(=O)Nc1ccc(/C=C\c2cc(OC)c(OC)c(OC)c2)cc1 endpoint_name=pIC50 relational_operator== observed_measurement=4.54
mol=O=C(NCCCl)Nc1ccc(/C=C/c2cccc(Cl)c2)cc1 endpoint_name=pIC50 relational_operator=< observed_measurement=4.70
mol=CCNC(=O)Nc1ccc(/C=C/c2cc(OC)c(OC)c(OC)c2)cc1 endpoint_name=pIC50 relational_operator== observed_measurement=4.80
mol=O=C1NCCN1c1ccc(/C=C/c2cccc(Cl)c2)cc1 endpoint_name=pIC50 relational_operator=< observed_measurement=4.70
mol=CCNC(=O)Nc1ccc(/C=C/c2cc(C)cc(C)c2)cc1 endpoint_name=pIC50 relational_operator=< observed_measurement=4.70
mol=COc1cc(/C=C/c2ccc(NC(=O)NCCCl)cc2)cc(OC)c1OC endpoint_name=pIC50 relational_operator=< observed_measurement=4.70
mol=Cc1cc(C)cc(/C=C\c2ccc(N3CCNC3=O)cc2)c1 endpoint_name=pIC50 relational_operator== observed_measurement=7.82

###

test system: M21; assay: Antiproliferative activity against human M21 cells assessed as cell growth inhibition after 48 hrs by sulforhodamine B assay; format: functional, cell-based; details: M21, 48 h
// boundary case: IC50 equal to 0.9 µM maps to Not met; strictly smaller maps to Met

mol=O=C1NCCN1c1ccc(/C=C/c2cccc(Cl)c2)cc1 experimental_target=M21 label_class="Not met"
mol=CCNC(=O)Nc1ccc(/C=C\c2cccc(Cl)c2)cc1 experimental_target=M21 label_class="Not met"
mol=CCNC(=O)Nc1ccc(/C=C/c2cc(OC)c(OC)c(OC)c2)cc1 experimental_target=M21 label_class="Not met"
mol=O=C1NCCN1c1ccc(/C=C\c2cccc(Cl)c2)cc1 experimental_target=M21 label_class=Met
mol=COc1cc(/C=C/c2ccc(N3CCNC3=O)cc2)cc(OC)c1OC experimental_target=M21 label_class=Met
mol=COc1cc(/C=C/c2ccc(NC(=O)NCCCl)cc2)cc(OC)c1OC experimental_target=M21 label_class="Not met"
mol=CCNC(=O)Nc1ccc(/C=C\c2cc(C)cc(C)c2)cc1 experimental_target=M21 label_class="Not met"
mol=O=C(NCCCl)Nc1ccc(/C=C/c2cccc(Cl)c2)cc1 experimental_target=M21 label_class="Not met"
mol=Cc1cc(C)cc(/C=C/c2ccc(N3CCNC3=O)cc2)c1 experimental_target=M21 label_class="Not met"
mol=O=C(NCCCl)Nc1ccc(/C=C\c2cccc(Cl)c2)cc1 experimental_target=M21 label_class=Met
mol=COc1cc(/C=C\c2ccc(N3CCNC3=O)cc2)cc(OC)c1OC experimental_target=M21 label_class=Met
mol=CCNC(=O)Nc1ccc(/C=C/c2cccc(Cl)c2)cc1 experimental_target=M21 label_class="Not met"
mol=CCNC(=O)Nc1ccc(/C=C/c2cc(C)cc(C)c2)cc1 experimental_target=M21 label_class="Not met"
mol=COc1ccc(/C=C\c2cc(OC)c(OC)c(OC)c2)cc1O experimental_target=M21 label_class=Met
mol=Cc1cc(C)cc(/C=C/c2ccc(NC(=O)NCCCl)cc2)c1 experimental_target=M21 label_class="Not met"
mol=Cc1cc(C)cc(/C=C\c2ccc(N3CCNC3=O)cc2)c1 experimental_target=M21 label_class=Met
mol=COc1cc(/C=C\c2ccc(NC(=O)NCCCl)cc2)cc(OC)c1OC experimental_target=M21 label_class="Not met"
mol=CCNC(=O)Nc1ccc(/C=C\c2cc(OC)c(OC)c(OC)c2)cc1 experimental_target=M21 label_class="Not met"
mol=Cc1cc(C)cc(/C=C\c2ccc(NC(=O)NCCCl)cc2)c1 experimental_target=M21 label_class=Met
